Exercise: state measured Ratio for each of the compounds provided.
biological target: ATP-dependent translocase ABCB1 (Homo sapiens); assay: Ratio of human MDR1 modulation transfected in mouse L5178Y cells at 40 ug/ml to human MDR1 modulation transfected in mouse L5178Y cells at 4 ug/ml; assay type: cell-based

smiles_notation=O=C1/C(=C/c2ccccc2)CN(C(=O)CCSCCS(=O)(=O)O)C/C1=C\c1ccccc1 observed_value=1.05
smiles_notation=Cc1ccc(/C=C2\CN(C(=O)CCSCCS(=O)(=O)O)C/C(=C\c3ccc(C)cc3)C2=O)cc1 observed_value=1.33

As a next step, examine the compound that follows.
Returns the measured Ratio for the input compound. Input: Cc1ccc(/C=C2\CN(C(=O)CCSCCO)C/C(=C\c3ccc(C)cc3)C2=O)cc1
0.8

----------
molecular target: ATP-dependent translocase ABCB1 (Homo sapiens, UniProt P08183); assay: Inhibition of human MDR1 transfected in mouse L5178Y cells assessed as fluorescence activity ratio at 40 ug/ml after 10 mins by rhodamine 123 dye based fluorescence analysis; assay type: cell-based
Sequence (P08183 whole entry): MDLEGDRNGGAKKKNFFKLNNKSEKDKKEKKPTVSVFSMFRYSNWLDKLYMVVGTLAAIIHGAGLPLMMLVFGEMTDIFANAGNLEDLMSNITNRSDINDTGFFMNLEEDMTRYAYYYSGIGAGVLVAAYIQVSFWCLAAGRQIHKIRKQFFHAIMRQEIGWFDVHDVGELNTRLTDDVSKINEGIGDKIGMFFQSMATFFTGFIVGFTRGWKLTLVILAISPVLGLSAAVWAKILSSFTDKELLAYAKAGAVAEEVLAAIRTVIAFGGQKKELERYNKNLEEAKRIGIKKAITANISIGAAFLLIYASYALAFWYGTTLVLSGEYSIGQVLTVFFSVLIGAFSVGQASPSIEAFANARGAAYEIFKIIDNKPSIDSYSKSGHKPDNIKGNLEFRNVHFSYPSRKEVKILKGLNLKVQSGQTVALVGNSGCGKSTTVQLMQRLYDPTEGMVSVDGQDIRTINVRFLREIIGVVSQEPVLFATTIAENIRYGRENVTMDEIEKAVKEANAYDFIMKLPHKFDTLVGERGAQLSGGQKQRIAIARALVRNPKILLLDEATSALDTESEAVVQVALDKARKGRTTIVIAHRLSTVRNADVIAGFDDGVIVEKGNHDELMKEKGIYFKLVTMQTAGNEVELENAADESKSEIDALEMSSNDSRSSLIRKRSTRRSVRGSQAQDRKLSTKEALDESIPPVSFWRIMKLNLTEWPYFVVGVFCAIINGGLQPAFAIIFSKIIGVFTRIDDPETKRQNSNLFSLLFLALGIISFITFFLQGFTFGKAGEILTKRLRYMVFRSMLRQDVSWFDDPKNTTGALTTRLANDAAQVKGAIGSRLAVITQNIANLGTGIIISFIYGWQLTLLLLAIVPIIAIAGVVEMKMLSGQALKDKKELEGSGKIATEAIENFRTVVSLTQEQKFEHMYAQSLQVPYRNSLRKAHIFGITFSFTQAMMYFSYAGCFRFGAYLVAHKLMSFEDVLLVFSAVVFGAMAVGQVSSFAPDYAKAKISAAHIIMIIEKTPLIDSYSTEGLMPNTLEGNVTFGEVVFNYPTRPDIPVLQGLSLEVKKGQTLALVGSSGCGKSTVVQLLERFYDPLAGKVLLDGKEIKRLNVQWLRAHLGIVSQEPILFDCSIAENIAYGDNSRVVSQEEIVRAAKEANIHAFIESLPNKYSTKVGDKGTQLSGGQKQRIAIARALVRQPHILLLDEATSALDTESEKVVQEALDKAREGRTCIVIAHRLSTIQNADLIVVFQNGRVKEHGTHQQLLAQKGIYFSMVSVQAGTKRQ
// NB: equality with 2 counts as criterion not met; only Ratio strictly below is criterion met

smiles_notation=COc1ccc(/C=C2\CN(C(=O)CCSCCO)C/C(=C\c3ccc(OC)cc3)C2=O)cc1 assigned_label="criterion not met"
smiles_notation=O=C1/C(=C/c2ccc([N+](=O)[O-])cc2)CN(C(=O)CCSCCO)C/C1=C\c1ccc([N+](=O)[O-])cc1 assigned_label="criterion not met"
smiles_notation=COc1ccc(/C=C2\CN(C(=O)CCSCCS(=O)(=O)O)C/C(=C\c3ccc(OC)cc3)C2=O)cc1 assigned_label="criterion not met"
smiles_notation=O=C1/C(=C/c2ccc(Cl)cc2)CN(C(=O)CCSCCO)C/C1=C\c1ccc(Cl)cc1 assigned_label="criterion not met"
smiles_notation=COc1ccc(/C=C2\CN(C(=O)CCSCCS)C/C(=C\c3ccc(OC)cc3)C2=O)cc1 assigned_label="criterion not met"

Please indicate whether the reported Ratio of Cc1ccc(/C=C2\CN(C(=O)CCSCCS(=O)(=O)O)C/C(=C\c3ccc(C)cc3)C2=O)cc1 is strictly below 2.
criterion met

----------
molecular target: ATP-dependent translocase ABCB1 (Homo sapiens); assay: Inhibition of human MDR1 transfected in mouse L5178Y cells assessed as fluorescence activity ratio at 4 ug/ml after 10 mins by rhodamine 123 dye based fluorescence analysis; assay type: cell-based
Parameter: Ratio
Numbers only.

These solved cases illustrate the format of a correct answer.
smiles_notation=COc1ccc(/C=C2\CN(C(=O)CCSCCO)C/C(=C\c3ccc(OC)cc3)C2=O)cc1 observed_value=37.1
smiles_notation=O=C1/C(=C/c2ccc(Cl)cc2)CN(C(=O)CCSCCO)C/C1=C\c1ccc(Cl)cc1 observed_value=49.2
smiles_notation=COc1ccc(/C=C2\CN(C(=O)CCSCCS(=O)(=O)O)C/C(=C\c3ccc(OC)cc3)C2=O)cc1 observed_value=1.27
smiles_notation=O=C1/C(=C/c2ccccc2)CN(C(=O)CCSCCS(=O)(=O)O)C/C1=C\c1ccccc1 observed_value=1.14
smiles_notation=O=C1/C(=C/c2ccc([N+](=O)[O-])cc2)CN(C(=O)CCSCCO)C/C1=C\c1ccc([N+](=O)[O-])cc1 observed_value=8.86
smiles_notation=O=C1/C(=C/c2ccccc2)CN(C(=O)CCSCCO)C/C1=C\c1ccccc1 observed_value=4.71

As a next step, examine the molecule that follows.
Returns the measured Ratio for the input molecule. Input: O=C1/C(=C/c2ccc(Cl)cc2)CN(C(=O)CCSCCS(=O)(=O)O)C/C1=C\c1ccc(Cl)cc1
1.14

----------
Exercise: state measured Ratio for each of the compounds provided.
target: ATP-dependent translocase ABCB1 (Homo sapiens); assay: Inhibition of human MDR1 transfected in mouse L5178Y cells assessed as fluorescence activity ratio at 4 ug/ml after 10 mins by rhodamine 123 dye based fluorescence analysis; type: cell-based

smiles_notation=Cc1ccc(/C=C2\CN(C(=O)CCSCCO)C/C(=C\c3ccc(C)cc3)C2=O)cc1 parameter=Ratio observed_value=55.4
smiles_notation=COc1ccc(/C=C2\CN(C(=O)CCSCCS)C/C(=C\c3ccc(OC)cc3)C2=O)cc1 parameter=Ratio observed_value=18.9
smiles_notation=Cc1ccc(/C=C2\CN(C(=O)CCSCCS(=O)(=O)O)C/C(=C\c3ccc(C)cc3)C2=O)cc1 parameter=Ratio observed_value=1.2

As a next step, examine the compound that follows.
Returns the measured Ratio for the input compound. Input: O=C1/C(=C/c2ccc([N+](=O)[O-])cc2)CN(C(=O)CCSCCS(=O)(=O)O)C/C1=C\c1ccc([N+](=O)[O-])cc1
1.14

----------
target: ATP-dependent translocase ABCB1 (Homo sapiens, UniProt P08183); assay: Ratio of human MDR1 modulation transfected in mouse L5178Y cells at 40 ug/ml to human MDR1 modulation transfected in mouse L5178Y cells at 4 ug/ml; assay type: cell-based
Exercise: state measured Ratio for each of the compounds provided.

These solved cases illustrate the format of a correct answer.
smiles_notation=O=C1/C(=C/c2ccc(Cl)cc2)CN(C(=O)CCSCCO)C/C1=C\c1ccc(Cl)cc1 parameter=Ratio observed_value=0.92
smiles_notation=O=C1/C(=C/c2ccc([N+](=O)[O-])cc2)CN(C(=O)CCSCCS(=O)(=O)O)C/C1=C\c1ccc([N+](=O)[O-])cc1 parameter=Ratio observed_value=1.5
smiles_notation=COc1ccc(/C=C2\CN(C(=O)CCSCCS(=O)(=O)O)C/C(=C\c3ccc(OC)cc3)C2=O)cc1 parameter=Ratio observed_value=2.54
smiles_notation=COc1ccc(/C=C2\CN(C(=O)CCSCCS)C/C(=C\c3ccc(OC)cc3)C2=O)cc1 parameter=Ratio observed_value=6.67

Parameter requested: Ratio. Apply to each item below.
1. O=C1/C(=C/c2ccc(Cl)cc2)CN(C(=O)CCSCCS(=O)(=O)O)C/C1=C\c1ccc(Cl)cc1
2. COc1ccc(/C=C2\CN(C(=O)CCSCCO)C/C(=C\c3ccc(OC)cc3)C2=O)cc1
3. O=C1/C(=C/c2ccc([N+](=O)[O-])cc2)CN(C(=O)CCSCCO)C/C1=C\c1ccc([N+](=O)[O-])cc1
4. O=C1/C(=C/c2ccccc2)CN(C(=O)CCSCCO)C/C1=C\c1ccccc1

1: 1.5; 2: 2.29; 3: 2.26; 4: 9

----------
target: ATP-dependent translocase ABCB1 (Homo sapiens); experiment: Inhibition of human MDR1 transfected in mouse L5178Y cells assessed as fluorescence activity ratio at 40 ug/ml after 10 mins by rhodamine 123 dye based fluorescence analysis; format: cell-based
Parameter: Ratio
Give bare numbers.

Parameter requested: Ratio. Apply to each item below.
1. O=C1/C(=C/c2ccc(Cl)cc2)CN(C(=O)CCSCCS(=O)(=O)O)C/C1=C\c1ccc(Cl)cc1
2. O=C1/C(=C/c2ccccc2)CN(C(=O)CCSCCO)C/C1=C\c1ccccc1
3. O=C1/C(=C/c2ccccc2)CN(C(=O)CCSCCS(=O)(=O)O)C/C1=C\c1ccccc1
4. Cc1ccc(/C=C2\CN(C(=O)CCSCCO)C/C(=C\c3ccc(C)cc3)C2=O)cc1
5. O=C1/C(=C/c2ccc([N+](=O)[O-])cc2)CN(C(=O)CCSCCS(=O)(=O)O)C/C1=C\c1ccc([N+](=O)[O-])cc1

1. 1.71
2. 42.4
3. 1.2
4. 44.4
5. 1.71

Recorded values, source ChEMBL document CHEMBL3758096.
